# ASSAY_PROTOCOL: activity coefficient (dimensionless); of the first substance listed, at infinite dilution; xn = mol fraction of the nth substance listed
# CONDITION_PARAMETERS: 368.15 K; 101.33 kPa; Liquid; Chromatography; x1 = 0
READOUT_LABEL: activity coefficient
Form field (numeric): enter value without unit.

Requested field: activity coefficient. Item: CC(C)c1ccccc1 [isopropylbenzene] + CCCCCCCCCCCCn1cc[n+](C)c1.O=S(=O)([N-]S(=O)(=O)C(F)(F)F)C(F)(F)F
1.36

# activity coefficient lookup, item CCc1ccccc1 [ethylbenzene] + CCCCCCCCCCCCn1cc[n+](C)c1.O=S(=O)([N-]S(=O)(=O)C(F)(F)F)C(F)(F)F
1.11

Fill in the blank: the reported activity coefficient of CCC[N+](=O)[O-] [1-nitropropane] + CCCCCCCCCCCCn1cc[n+](C)c1.O=S(=O)([N-]S(=O)(=O)C(F)(F)F)C(F)(F)F is ____.
0.634

Sample C1CCOC1 [tetrahydrofuran] + CCCCCCCCCCCCn1cc[n+](C)c1.O=S(=O)([N-]S(=O)(=O)C(F)(F)F)C(F)(F)F — what was its activity coefficient?
0.508

What activity coefficient value was documented for this molecule, C=C(C)c1ccccc1 [(1-methylethenyl)benzene] + CCCCCCCCCCCCn1cc[n+](C)c1.O=S(=O)([N-]S(=O)(=O)C(F)(F)F)C(F)(F)F ?
1.05

Look at this molecule and give its reported activity coefficient. CCCc1ccccc1 [propylbenzene] + CCCCCCCCCCCCn1cc[n+](C)c1.O=S(=O)([N-]S(=O)(=O)C(F)(F)F)C(F)(F)F
1.35

Using the record for CCCCCC [hexane] + CCCCCCCCCCCCn1cc[n+](C)c1.O=S(=O)([N-]S(=O)(=O)C(F)(F)F)C(F)(F)F , report its activity coefficient.
3.26

Recorded activity coefficient of CC(C)CO [2-methyl-1-propanol] + CCCCCCCCCCCCn1cc[n+](C)c1.O=S(=O)([N-]S(=O)(=O)C(F)(F)F)C(F)(F)F , please.
1.13

Quick one: activity coefficient for c1ccsc1 [thiophene] + CCCCCCCCCCCCn1cc[n+](C)c1.O=S(=O)([N-]S(=O)(=O)C(F)(F)F)C(F)(F)F ?
0.658

Recorded activity coefficient for CCCCCO [pentan-1-ol] + CCCCCCCCCCCCn1cc[n+](C)c1.O=S(=O)([N-]S(=O)(=O)C(F)(F)F)C(F)(F)F , please?
1.26

Dear colleague, I am looking for the recorded activity coefficient of the following molecule: CO [methanol] + CCCCCCCCCCCCn1cc[n+](C)c1.O=S(=O)([N-]S(=O)(=O)C(F)(F)F)C(F)(F)F
1.01

I am curious: what activity coefficient value has been reported for CCCCCCCCCC [decane] + CCCCCCCCCCCCn1cc[n+](C)c1.O=S(=O)([N-]S(=O)(=O)C(F)(F)F)C(F)(F)F ?
6.12

Param item = CCCC=O [butanal] + CCCCCCCCCCCCn1cc[n+](C)c1.O=S(=O)([N-]S(=O)(=O)C(F)(F)F)C(F)(F)F ; retrieve measured activity coefficient.
0.575

Reported activity coefficient, molecule CCCCC [pentane] + CCCCCCCCCCCCn1cc[n+](C)c1.O=S(=O)([N-]S(=O)(=O)C(F)(F)F)C(F)(F)F : ____
2.81
